What pKi was measured for each of the following?
# target of assay: NlugCSP8 (Nilaparvata lugens, UniProt B7TVH4)
# Sequence (B7TVH4 entry or part of it): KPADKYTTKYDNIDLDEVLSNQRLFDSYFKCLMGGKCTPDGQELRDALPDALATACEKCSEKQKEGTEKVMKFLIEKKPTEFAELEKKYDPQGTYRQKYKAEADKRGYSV
# assay remarks: Fluorescence competitive ligand binding assay with 1-NPN probe
# condition description: Ki, pH 5.0, calculated from IC50
# pKi: negative log10 of molar concentration; output just the value

Ask | Field request: pKi | item: CC/C=C\CCO [Cis-3-hexen-1-ol]
Reply | 4.48

Ask | Field request: pKi | item: Cc1ccc(C(C)C)cc1
Reply | 4.70

Ask | Field request: pKi | item: CC1=CC[C@](O)(C(C)C)CC1
Reply | 5.00

Ask | Field request: pKi | item: COC(=O)c1ccccc1 [Methyl benzoate]
Reply | 4.81

Ask | Field request: pKi | item: CCC/C=C/CO [Trans-2-hexen-1-ol]
Reply | 4.80

Ask | Field request: pKi | item: CC1=CC=C(C(C)C)CC1
Reply | 4.85

Ask | Field request: pKi | item: OC1CCCCC1
Reply | 4.08

Ask | Field request: pKi | item: CC1=CC[C@@H](C(C)(C)O)CC1
Reply | 4.87

Ask | Field request: pKi | item: C=CC(C)(O)CCC=C(C)C (stereo not drawn)
Reply | 4.49

Ask | Field request: pKi | item: CCCCCC=O
Reply | 5.02

Ask | Field request: pKi | item: CC1=CCC(=C(C)C)CC1
Reply | 4.57

---

# target of assay: NlugCSP8 (Nilaparvata lugens, UniProt B7TVH4)
# assay remarks: Fluorescence competitive ligand binding assay with 1-NPN probe
# condition description: pH 5.0, calculated from IC50, read-out: Ki
endpoint label: pKi
# pKi: negative log10 of molar concentration; output just the value

Ask | Lab request: please report pKi under test system NlugCSP8 (Nilaparvata lugens, UniProt B7TVH4) for CCCCCC(C)O (centres unmarked) [2-Heptanol]
Reply | 5.01

Ask | Lab request: please report pKi under test system NlugCSP8 (Nilaparvata lugens, UniProt B7TVH4) for CCCCCCCCCCCCCCCCCCC [Nonadecane]
Reply | 4.61

Ask | Lab request: please report pKi under test system NlugCSP8 (Nilaparvata lugens, UniProt B7TVH4) for CCC(O)CC [3-Pentanol]
Reply | 4.56

Ask | Lab request: please report pKi under test system NlugCSP8 (Nilaparvata lugens, UniProt B7TVH4) for CCCCCCCCCCCC=O [Dodecyl aldehyde]
Reply | 4.55

Ask | Lab request: please report pKi under test system NlugCSP8 (Nilaparvata lugens, UniProt B7TVH4) for C=C(C)[C@H]1CC=C(C)CC1 [R-(+)-limonene]
Reply | 4.90

Ask | Lab request: please report pKi under test system NlugCSP8 (Nilaparvata lugens, UniProt B7TVH4) for C=CC(O)CCCCC (centres unmarked) [1-Octen-3-ol]
Reply | 4.72

Ask | Lab request: please report pKi under test system NlugCSP8 (Nilaparvata lugens, UniProt B7TVH4) for CCCCCCCCCCCCCCCCCCCC [Eicosane]
Reply | 4.91

Ask | Lab request: please report pKi under test system NlugCSP8 (Nilaparvata lugens, UniProt B7TVH4) for CC1=CCC2C(C1)C2(C)C (single isomer, unassigned; (+)) [(+)-3-Carene]
Reply | 4.46

Ask | Lab request: please report pKi under test system NlugCSP8 (Nilaparvata lugens, UniProt B7TVH4) for C=CC(C)(O)CCC=C(C)CCC=C(C)C (mixture of isomers) [Nerolidol]
Reply | 5.08

Ask | Lab request: please report pKi under test system NlugCSP8 (Nilaparvata lugens, UniProt B7TVH4) for CCCCCCCCCCCCCCCC [Hexadecane]
Reply | 4.62

Ask | Lab request: please report pKi under test system NlugCSP8 (Nilaparvata lugens, UniProt B7TVH4) for CCCCCCCCCCCC(C)=O [2-Tridecanone]
Reply | 4.98

---

# target of assay: NlugCSP8 (Nilaparvata lugens, UniProt B7TVH4)
# assay remarks: Fluorescence competitive ligand binding assay with 1-NPN probe
# condition description: pH 7.4, calculated from IC50, read-out: Ki
endpoint label: Ki
Answer shape: numeric part, then the unit.

Ask | Field request: Ki | item: CCCCCCCCCCCCCCCCCCCC
Reply | 12.4 µM

Ask | Field request: Ki | item: CCCCCCCCCCCC=O
Reply | 12.2 µM

Ask | Field request: Ki | item: CCCCCCCCCCCCCCCC
Reply | 15.9 µM

Ask | Field request: Ki | item: C=CC(O)CCCCC (centres unmarked)
Reply | 19.4 µM

Ask | Field request: Ki | item: C=CC(C)(O)CCC=C(C)CCC=C(C)C (mixture of isomers)
Reply | 10 µM

Ask | Field request: Ki | item: CC1=CCC2C(C1)C2(C)C (single isomer, unassigned; (+)) [(+)-3-Carene]
Reply | 27 µM

Ask | Field request: Ki | item: CCCCCCCCCCCC(C)=O
Reply | 12.5 µM

Ask | Field request: Ki | item: CCCCCCCCCCCCCCCCCCC
Reply | 14.3 µM

Ask | Field request: Ki | item: CCC(O)CC
Reply | 19.6 µM

Ask | Field request: Ki | item: C=C(C)[C@H]1CC=C(C)CC1 [R-(+)-limonene]
Reply | 13.2 µM

Ask | Field request: Ki | item: CCCCCC(C)O (centres unmarked)
Reply | 13.8 µM

---

What Ki was measured for each of the following?
# target of assay: NlugCSP8 (Nilaparvata lugens)
# assay remarks: Fluorescence competitive ligand binding assay with 1-NPN probe
# condition description: Ki, pH 7.4, calculated from IC50
Respond with the bare value in µM.

Ask | Lab request: please report Ki under test system NlugCSP8 (Nilaparvata lugens) for C=CC(C)(O)CCC=C(C)C (stereo not drawn)
Reply | 19.5

Ask | Lab request: please report Ki under test system NlugCSP8 (Nilaparvata lugens) for CC1=CCC(=C(C)C)CC1
Reply | 21.3

Ask | Lab request: please report Ki under test system NlugCSP8 (Nilaparvata lugens) for OC1CCCCC1
Reply | 42.7

Ask | Lab request: please report Ki under test system NlugCSP8 (Nilaparvata lugens) for CCC/C=C/CO [Trans-2-hexen-1-ol]
Reply | 21.5

Ask | Lab request: please report Ki under test system NlugCSP8 (Nilaparvata lugens) for CC1=CC[C@](O)(C(C)C)CC1
Reply | 15.8

Ask | Lab request: please report Ki under test system NlugCSP8 (Nilaparvata lugens) for CCCCCC=O
Reply | 14.4

---

# target of assay: NlugCSP8 (Nilaparvata lugens, UniProt B7TVH4)
# assay remarks: Fluorescence competitive ligand binding assay with 1-NPN probe
# condition description: pH 7.4, read-out: IC50
endpoint label: IC50 (µM)
Respond with the bare value in µM.

Ask | Lab request: please report IC50 under test system NlugCSP8 (Nilaparvata lugens, UniProt B7TVH4) for C=C(C)[C@H]1CC=C(C)CC1 [R-(+)-limonene]
Reply | 15.9

Ask | Lab request: please report IC50 under test system NlugCSP8 (Nilaparvata lugens, UniProt B7TVH4) for C=CC(C)(O)CCC=C(C)CCC=C(C)C (mixture of isomers)
Reply | 12

Ask | Lab request: please report IC50 under test system NlugCSP8 (Nilaparvata lugens, UniProt B7TVH4) for C=CC(O)CCCCC (centres unmarked)
Reply | 23.3

Ask | Lab request: please report IC50 under test system NlugCSP8 (Nilaparvata lugens, UniProt B7TVH4) for CCCCCCCCCCCC(C)=O
Reply | 15

Ask | Lab request: please report IC50 under test system NlugCSP8 (Nilaparvata lugens, UniProt B7TVH4) for CCCCCCCCCCCCCCCCCCCC
Reply | 14.9

Ask | Lab request: please report IC50 under test system NlugCSP8 (Nilaparvata lugens, UniProt B7TVH4) for CCCCCCCCCCCC=O
Reply | 14.6

Ask | Lab request: please report IC50 under test system NlugCSP8 (Nilaparvata lugens, UniProt B7TVH4) for CC1=CCC2C(C1)C2(C)C (single isomer, unassigned; (+)) [(+)-3-Carene]
Reply | 32.4

Ask | Lab request: please report IC50 under test system NlugCSP8 (Nilaparvata lugens, UniProt B7TVH4) for CCCCCC(C)O (centres unmarked)
Reply | 16.5

Ask | Lab request: please report IC50 under test system NlugCSP8 (Nilaparvata lugens, UniProt B7TVH4) for CCCCCCCCCCCCCCCCCCC
Reply | 17.2

Ask | Lab request: please report IC50 under test system NlugCSP8 (Nilaparvata lugens, UniProt B7TVH4) for CCC(O)CC
Reply | 23.5

Ask | Lab request: please report IC50 under test system NlugCSP8 (Nilaparvata lugens, UniProt B7TVH4) for CCCCCCCCCCCCCCCC
Reply | 19

---

# target of assay: UniProt B7TVH4
# assay remarks: Fluorescence competitive ligand binding assay with 1-NPN probe
# condition description: IC50, pH 7.4
endpoint label: pIC50
# pIC50: negative log10 of molar concentration; output just the value

Ask | Lab request: please report pIC50 under test system UniProt B7TVH4 for CC/C=C\CCO [Cis-3-hexen-1-ol]
Reply | 4.56

Ask | Lab request: please report pIC50 under test system UniProt B7TVH4 for CC1=CCC(=C(C)C)CC1 [Terpinolene]
Reply | 4.59

Ask | Lab request: please report pIC50 under test system UniProt B7TVH4 for C=CC(C)(O)CCC=C(C)C (stereo not drawn) [Linalool]
Reply | 4.63

Ask | Lab request: please report pIC50 under test system UniProt B7TVH4 for CC1=CC=C(C(C)C)CC1 [α-Terpinene]
Reply | 4.78

Ask | Lab request: please report pIC50 under test system UniProt B7TVH4 for CC1=CC[C@@H](C(C)(C)O)CC1 [α-Terpineol]
Reply | 4.62

Ask | Lab request: please report pIC50 under test system UniProt B7TVH4 for OC1CCCCC1 [Cyclohexanol]
Reply | 4.29

Ask | Lab request: please report pIC50 under test system UniProt B7TVH4 for Cc1ccc(C(C)C)cc1 [4-Isopropyl to luene]
Reply | 4.69

Ask | Lab request: please report pIC50 under test system UniProt B7TVH4 for CCC/C=C/CO [Trans-2-hexen-1-ol]
Reply | 4.59

Ask | Lab request: please report pIC50 under test system UniProt B7TVH4 for CC1=CC[C@](O)(C(C)C)CC1 [(–)-Terpinen-4-ol]
Reply | 4.72

Ask | Lab request: please report pIC50 under test system UniProt B7TVH4 for CCCCCC=O [Hexanal]
Reply | 4.76

Ask | Lab request: please report pIC50 under test system UniProt B7TVH4 for COC(=O)c1ccccc1 [Methyl benzoate]
Reply | 4.63

Ask | Lab request: please report pIC50 under test system UniProt B7TVH4 for CCC/C=C/C=O [Trans-2-hexenal]
Reply | 4.55
